- Test system: 786-0
- ASSAY_NAME: NCI tumour cell line growth inhibition, 48 h
Active and inactive are the calls of the source. Cut-off read from the data, not from the text of the source: active = GI50 up to about 1.1 µM and inactive = higher.
# valid calls are active, inactive; nothing else

# COMPOUND, ASSIGNED_CATEGORY
records = [
    ("CC(=O)NC(C)(C)C1CC=C(C)/C(=N\\O)C1 (centres undefined)", "inactive"),
    ("O=C1OC(c2ccc(O)c(-c3ccccc3)c2)(c2ccc(O)c(-c3ccccc3)c2)c2c(Cl)c(Cl)c(Cl)c(Cl)c21", "inactive"),
    ("C1=N\\c2ccc(cc2)-c2ccc(cc2)/N=C\\c2ccc(cc2)OCc2cccc(n2)COc2ccc/1cc2", "inactive"),
    ("O=S(=O)(O)c1ccc(Nc2ccnc3cc(Cl)ccc23)cc1", "inactive"),
    ("CN(CC(=O)O)c1ccc(/C=C/c2ccnc3ccccc23)cc1", "inactive"),
    ("C=C1C(=O)OC2/C=C(\\C)C3OC3/C=C(/C(=O)OC)C(OC(C)=O)C(OC(=O)C(C)(O)C(C)OC(C)=O)C12 (centres undefined)", "inactive"),
    ("Oc1ccc2ccccc2c1-c1nnc(CCCCCCCCc2nnc(-c3c(O)ccc4ccccc34)o2)o1", "active"),
    ("c1ccc(-c2ccnc3c2ccc2c(-c4ccccc4)ccnc23)cc1", "inactive"),
]

Q: Which outcome was assigned to CC(=O)NC1c2ccccc2C(C)(C)C12CCC1(CC2)OCCO1 (centres undefined) in this test?
Result: inactive

====

- Test system: SK-MEL-28
- ASSAY_NAME: NCI tumour cell line growth inhibition, 48 h
Active and inactive are the calls of the source. Cut-off read from the data, not from the text of the source: active = GI50 up to about 1.1 µM and inactive = higher.
Please respond with reported GI50 for every item in the list.

# COMPOUND, MEASURED_TARGET, OBS_VALUE
data = [
    ("CCC(C)n1c(C)nc2c1C(=O)c1ccccc1C2=O (stereo not given)", "SK-MEL-28", "75.7 µM (inactive)"),
    ("CC1CCCN(CP(=O)(c2ccccc2)c2ccccc2)C1 (stereo not given)", "SK-MEL-28", "> 100 µM (inactive)"),
]

Report GI50 for each item below.
1. C1=N\c2ccc(cc2)-c2ccc(cc2)/N=C\c2ccc(cc2)OCc2cccc(n2)COc2ccc/1cc2
2. O=C(c1ccc([N+](=O)[O-])cc1[N+](=O)[O-])N(/N=C/C=C/c1ccccc1)c1nnc(-c2ccccc2)c(-c2ccccc2)n1
3. c1ccc2c(c1)NC(C1OC3CCCN3C1C1Nc3ccccc3S1)S2 (stereo not given)

Result:
> 100 µM (inactive)
27.3 µM (inactive)
> 100 µM (inactive)

====

- System: COLO 205
- ASSAY_NAME: NCI tumour cell line growth inhibition, 48 h
The source made the active and inactive calls. Rule as the data show it: active = GI50 up to about 1.1 µM and inactive = higher.
# valid calls are yes (1) = active, no (0) = inactive; nothing else

For orientation, consider the following solved cases.
# MOLECULE, ASSIGNED_CATEGORY
rows = [
    ("CCN(CC)c1ccc2c(c1)OC(=O)C(c1nnc(-c3ccc([N+](=O)[O-])cc3)o1)C2 (stereo not given)", "no (0)"),
    ("COc1ccc(N2C=Nn3c(nc4sc5c(c4c3=O)CCCC5)C2)cc1", "no (0)"),
    ("C#C/C=C/CC1OC(C(Br)CC)CC(Br)C2CC1O2 (stereo not given)", "no (0)"),
    ("CCCCCC(O)(CCCCC)CCCCCCCCC1=C(O)C(=O)c2ccccc2C1=O", "no (0)"),
    ("OCC1OC(NC(=S)NCSCCC(F)(F)C(F)(F)C(F)(F)C(F)(F)C(F)(F)C(F)(F)F)C(O)C(O)C1O (stereo not given)", "no (0)"),
    ("COc1cccc(/C=N/n2c(Cc3ccc(Cl)cc3)n[nH]c2=O)c1", "no (0)"),
    ("Cc1cc(O)c2c(c1O)C(=O)C1=C(C2=O)C(=O)C2C(O)C1C1C(O)CC(O)=C3C(=O)c4c(O)cc(C)c(O)c4C(=O)C321 (stereo not given)", "yes (1)"),
    ("CS(=O)(=O)c1ccc(/C=N/NC(N)=S)cc1", "no (0)"),
]

Q: Which outcome was assigned to COc1cccc(C2SCc3nc4ccccc4n32)c1 (stereo not given) in this test?
Result: no (0)

Q: Which outcome was assigned to CC(=O)CC(C)(C)NC(=O)[C@@]1(O)CC[C@H]2[C@@H]3CCC4=CC(=O)CC[C@@H]4[C@H]3CC[C@@]21C in this test?
Result: no (0)

Q: Which outcome was assigned to CNc1ccc2nc(-c3ccc(OC(=O)N(C)C)cc3)cn2c1 in this test?
Result: no (0)

Q: Which outcome was assigned to CCOP(=O)(OCC)C(Nc1ccc(Cl)cc1)c1ccc(F)cc1 (stereo not given) in this test?
Result: no (0)

Q: Which outcome was assigned to COc1ccc2c(C)cc(C)nc2n1 in this test?
Result: no (0)

Q: Which outcome was assigned to CCOC(=O)NC(Nc1ccc(C(=O)O)cc1)(C(F)(F)F)C(F)(F)F in this test?
Result: no (0)

Q: Which outcome was assigned to O=C(C[n+]1ccc2ccccc2c1)c1ccc2ccc3ccccc3c2c1 in this test?
Result: yes (1)

Q: Which outcome was assigned to NC(CCCCNc1ccn(C2OC(CO)C(O)C2O)c(=O)n1)C(=O)O (stereo not given) in this test?
Result: no (0)

Q: Which outcome was assigned to N#CC12C(=O)N3C(=NC(c4ccco4)NC3c3ccco3)C1(C#N)C(c1ccco1)NC1=C2CCCC1 (stereo not given) in this test?
Result: no (0)

Q: Which outcome was assigned to O=C(CC(C(=O)c1ccsc1)c1ccccc1)c1ccccc1 (stereo not given) in this test?
Result: no (0)

Q: Which outcome was assigned to Cc1ccc(C2=C(c3ccccc3)C(Br)(c3ccccc3)C(c3ccccc3)=C2c2ccc(C)cc2)cc1 in this test?
Result: no (0)

Q: Which outcome was assigned to COc1ccc2c(c1)/C(=C\c1c(-c3ccccc3)nc3n1CCS3)C(=O)N2 in this test?
Result: no (0)

====

- Tested on: SNB-19
- ASSAY_NAME: NCI tumour cell line growth inhibition, 48 h
Active and inactive are the calls of the source. No stated cut-off is given here; in the data, active = GI50 up to about 1.1 µM and inactive = higher.
MEASURED_PARAMETER: GI50

# MOLECULE, MEASURED_TARGET, OBS_VALUE
records = [
    ("CCCCCC(O)(CCCCC)CCCCCCCCC1=C(O)C(=O)c2ccccc2C1=O", "SNB-19", "5.75 µM (inactive)"),
    ("O=C(O)CC(C(=O)O)C1c2ccccc2-c2ccccc21 (stereo unspecified)", "SNB-19", "34 µM (inactive)"),
    ("CC(=O)NNc1nc(C)c(C(=O)NNC(=O)C(=O)Nc2c(C)cccc2C(C)(C)C)s1", "SNB-19", "> 100 µM (inactive)"),
    ("C=C[C@@H]1C[C@]2(C(=O)OC)Cc3nc4ccccc4nc3CC(C(=O)OC)=C2O1", "SNB-19", "> 100 µM (inactive)"),
    ("OCCN1CCN(c2nc(N3CCCC3)c3nc(Cl)c(NCc4ccccc4)nc3n2)CC1", "SNB-19", "7.62 µM (inactive)"),
]

Report GI50 for each item below.
1. CCOC(=O)c1ccc(Nc2nc3ccccc3n3cccc23)cc1
2. Oc1ccc2ccccc2c1-c1nnc(CCCCCCCCc2nnc(-c3c(O)ccc4ccccc34)o2)o1
3. COc1ccc2oc(S(=O)(=O)N3CC(CCl)c4ccc(N)cc43)cc2c1 (stereo unspecified)
4. O=CNc1ncn[nH]1
5. COC(=O)C1CCC(=O)N1C(c1ccc(OC)cc1)c1cc(OC)c(OC)c(OC)c1 (stereo unspecified)
6. C=C1CCN2CC[C@@H](OC(=O)/C(C)=C\C)[C@@H]12

Result:
1. 52.5 µM (inactive)
2. 3.53 µM (inactive)
3. 0.0608 µM (active)
4. > 100 µM (inactive)
5. 0.531 µM (active)
6. > 100 µM (inactive)

====

- Test system: UACC-257
- ASSAY_NAME: NCI tumour cell line growth inhibition, 48 h
Calls of active or inactive are those of the source. Cut-off read from the data, not from the text of the source: active = GI50 up to about 1.1 µM and inactive = higher.
# valid calls are active, inactive; nothing else

For orientation, consider the following solved cases.
# COMPOUND, MEASURED_TARGET, ASSIGNED_CATEGORY
rows = [
    ("O=C1/C(=C/c2ccc(F)cc2)CNC/C1=C\\c1ccc(F)cc1", "UACC-257", "inactive"),
    ("COc1cc(C2c3cc4c(cc3OC(N3CCCCC3)C2C)OCO4)cc(OC)c1O (stereo unspecified)", "UACC-257", "inactive"),
    ("CCCCCOc1ccc(/C=N\\c2ccc(-c3ccc(/N=C\\c4ccc(OCCCCC)cc4)c(OC)c3)cc2OC)cc1", "UACC-257", "inactive"),
    ("O=C(O)/C=C/c1ccc(OS(=O)(=O)O)cc1", "UACC-257", "inactive"),
]

Q: Which outcome was assigned to O=C1[C@H]2ON(c3ccccc3)C(c3ccc(Cl)cc3Cl)[C@H]2C(=O)N1c1ccc(Cc2ccc(N3C(=O)[C@@H]4ON(c5ccccc5)C(c5ccc(Cl)cc5Cl)[C@@H]4C3=O)cc2)cc1 (stereo partly specified) in this test?
Result: inactive

Q: Which outcome was assigned to Nc1nc(NCC2(CO)CC(CCc3ccccc3)C2)cc(=O)[nH]1 (stereo unspecified) in this test?
Result: inactive

Q: Which outcome was assigned to CC(=O)OC1CC2(O)C(CCC3(C)C(c4ccc(=O)oc4)CCC32O)C2(C)CCC(O)C=C12 (stereo unspecified) in this test?
Result: active

Q: Which outcome was assigned to COc1c2c(cc3c1OCO3)[C@]13C=C[C@H](OC)C[C@H]1N(C2)CC3O (stereo partly specified) in this test?
Result: inactive

Q: Which outcome was assigned to O=C(O)c1c2c(cc3c1CC1(Cc4cc5c(cc4C1=O)CCC5)C3)CCC2 (stereo unspecified) in this test?
Result: inactive
